# study_target: GST-Co-NF-kB (Capsaspora owczarzaki, UniProt F1ARL5 200-546)
# Sequence: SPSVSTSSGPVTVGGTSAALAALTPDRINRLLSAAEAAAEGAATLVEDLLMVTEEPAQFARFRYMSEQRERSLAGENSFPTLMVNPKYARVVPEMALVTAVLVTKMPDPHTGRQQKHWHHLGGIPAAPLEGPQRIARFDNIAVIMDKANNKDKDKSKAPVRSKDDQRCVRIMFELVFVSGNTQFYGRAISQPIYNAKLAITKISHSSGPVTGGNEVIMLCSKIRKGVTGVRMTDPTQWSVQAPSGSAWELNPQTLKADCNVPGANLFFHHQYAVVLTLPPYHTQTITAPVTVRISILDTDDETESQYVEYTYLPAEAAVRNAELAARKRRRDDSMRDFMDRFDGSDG
# test_summary: protein-binding microarray (PBM); PBM: ~300 nM protein, 6 mM HEPES pH 7.8, 80 mM KCl, 0.5 mM EDTA, 0.5 mM EGTA, 6% glycerol, 35 ng/ul poly-dIdC, 1% milk, 1 h, room temperature; Ap Aiptasia and Nv Nematostella (sea anemones) / Co Capsaspora / Aq Amphimedon (sponge) / Dm Drosophila / Hu human; RHD is the Rel homology domain; high values mean tight binding
# condition_summary: dsDNA, one strand shown

| record_sequence | units_text | binding signal |
| --- | --- | --- |
| CCGATTAACATCAGACATCCCCCTGATGTTAATCGGGTCTTGATTCGCTTGACGCTGCTG | z-score | 3.71 |
| CCGATTAACATCAAAAATACCCATGATGTTAATCGGGTCTTGATTCGCTTGACGCTGCTG | z-score | 2.49 |
| CCGATTAACATCAAGGGGAAAATTGATGTTAATCGGGTCTTGATTCGCTTGACGCTGCTG | z-score | 8.77 |
| CCGATTAACATCAGAATATCCCATGATGTTAATCGGGTCTTGATTCGCTTGACGCTGCTG | z-score | 1.46 |
| CCGATTAACATCAAAAGAGTCCCTGATGTTAATCGGGTCTTGATTCGCTTGACGCTGCTG | z-score | 1.5 |
| CCGATTAACATCACGGGGTTGCCTGATGTTAATCGGGTCTTGATTCGCTTGACGCTGCTG | z-score | 1.38 |
| CCGATTAACATCACGGGAAAACCTGATGTTAATCGGGTCTTGATTCGCTTGACGCTGCTG | z-score | 5.1 |
| CCGATTAACATCAAGAATTCCCATGATGTTAATCGGGTCTTGATTCGCTTGACGCTGCTG | z-score | 3.48 |
| CCGATTAACATCAGCGGGAATCCTGATGTTAATCGGGTCTTGATTCGCTTGACGCTGCTG | z-score | 2.25 |
| CCGATTAACATCAAAAAGTCCCGTGATGTTAATCGGGTCTTGATTCGCTTGACGCTGCTG | z-score | 2.47 |
| CCGATTAACATCAGACATGGGAATGATGTTAATCGGGTCTTGATTCGCTTGACGCTGCTG | z-score | 2.4 |
| CCGATTAACATCAGGGGAAAGACTGATGTTAATCGGGTCTTGATTCGCTTGACGCTGCTG | z-score | 4.97 |
| CCGATTAACATCAGGCAACCCCCTGATGTTAATCGGGTCTTGATTCGCTTGACGCTGCTG | z-score | 2.03 |
| CCGATTAACATCAAAACTCCCCTTGATGTTAATCGGGTCTTGATTCGCTTGACGCTGCTG | z-score | 4.59 |
| CCGATTAACATCAATATTCCCCCTGATGTTAATCGGGTCTTGATTCGCTTGACGCTGCTG | z-score | 10.4 |
| CCGATTAACATCAGGGGGCACCCTGATGTTAATCGGGTCTTGATTCGCTTGACGCTGCTG | z-score | 2.17 |
| CCGATTAACATCAGTGGGAAACATGATGTTAATCGGGTCTTGATTCGCTTGACGCTGCTG | z-score | 3.12 |
| CCGATTAACATCAAATAAACCCCTGATGTTAATCGGGTCTTGATTCGCTTGACGCTGCTG | z-score | 2.32 |
| CCGATTAACATCACACTCCCCCCTGATGTTAATCGGGTCTTGATTCGCTTGACGCTGCTG | z-score | 6.07 |
| CCGATTAACATCAGGGGGGATTATGATGTTAATCGGGTCTTGATTCGCTTGACGCTGCTG | z-score | 7.08 |
| CCGATTAACATCAGAAATCTCCCTGATGTTAATCGGGTCTTGATTCGCTTGACGCTGCTG | z-score | 2.43 |
| CCGATTAACATCACCCAGTTCCCTGATGTTAATCGGGTCTTGATTCGCTTGACGCTGCTG | z-score | 1.44 |
| CCGATTAACATCAGAAATTCCCATGATGTTAATCGGGTCTTGATTCGCTTGACGCTGCTG | z-score | 4.07 |
| CCGATTAACATCAGGGAAAACAATGATGTTAATCGGGTCTTGATTCGCTTGACGCTGCTG | z-score | 5.48 |
| CCGATTAACATCAGGGGAAAGGATGATGTTAATCGGGTCTTGATTCGCTTGACGCTGCTG | z-score | 4.77 |
| CCGATTAACATCAGGAATTCCCCTGATGTTAATCGGGTCTTGATTCGCTTGACGCTGCTG | z-score | 7.64 |
| CCGATTAACATCAAGGGGGAAACTGATGTTAATCGGGTCTTGATTCGCTTGACGCTGCTG | z-score | 8.9 |
| CCGATTAACATCACTTTCCCAAATGATGTTAATCGGGTCTTGATTCGCTTGACGCTGCTG | z-score | 2.28 |
| CCGATTAACATCACGGGTTTCCCTGATGTTAATCGGGTCTTGATTCGCTTGACGCTGCTG | z-score | 4.46 |
| CCGATTAACATCAGGAATCTCCCTGATGTTAATCGGGTCTTGATTCGCTTGACGCTGCTG | z-score | 1.77 |
| CCGATTAACATCAAAGAATTCCCTGATGTTAATCGGGTCTTGATTCGCTTGACGCTGCTG | z-score | 4.52 |
| CCGATTAACATCATTCCCGGGAATGATGTTAATCGGGTCTTGATTCGCTTGACGCTGCTG | z-score | 5.77 |
| CCGATTAACATCAAAATTCCCAGTGATGTTAATCGGGTCTTGATTCGCTTGACGCTGCTG | z-score | 4.87 |
| CCGATTAACATCAACCCCCGGCTTGATGTTAATCGGGTCTTGATTCGCTTGACGCTGCTG | z-score | 2.79 |
